All figures here come from the supplement of paper PMC11208160.

Recorded recombinant UMI read abundance (log10) values for a group of sequences are listed next.
- protocol-summary: recombinant UMI read abundance after kanamycin selection (control-corrected) (log10(CPM+1)); higher = more efficient recombination; extreme values may be limits of the assay; sequences stand for … in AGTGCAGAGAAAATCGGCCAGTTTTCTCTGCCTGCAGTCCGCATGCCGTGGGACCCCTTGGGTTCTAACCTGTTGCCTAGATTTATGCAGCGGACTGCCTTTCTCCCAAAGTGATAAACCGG…AGGTTGGTTTCACT; site = the 11-nt donor
Could you keep your reply to the number by itself?

See these solved cases before continuing.
macromolecule-sequence | obs-value
CCTGGTGCATGGACCGGTTTTCCCGGTAATCCGTATTTGAT (site CCAGGTGCTAT) | 0.00887
GAATGGACATGGACCGGTTTTCCCGGTAATCCGTATTTGAC (site GACTGGACTGT) | 0
CGCGGTACATGGACCGGTTTTCCCGGTAATCCGTATTTGCT (site CGCCGTACTAG) | 0
AGGACTACATGGACCGGTTTTCCCGGTAATCCGTATTTGAA (site AGGACTACTAT) | 1.41
GTCCTGCCATGGACCGGTTTTCCCGGTAATCCGTATTTGGC (site GTCCTGCCTGC) | 0

**Query** Could you share which recombinant UMI read abundance (log10) value was measured for TGTCTTGCATGGACCGGTTTTCCCGGTAATCCGTATTTGGG (site TGTCTTGCTCC) ?
**Result** 0.016

**Query** What do we get for TCACATCCATGGACCGGTTTTCCCGGTAATCCGTATTTGAC (site TCACATCCTGT) ?
**Result** 0

**Query** What do we get for GGACAGACATGGACCGGTTTTCCCGGTAATCCGTATTTGCC (site GGAGAGACTGG) ?
**Result** 0

**Query** What do we get for GGTACACCATGGACCGGTTTTCCCGGTAATCCGTATTTGAC (site TGTACACCTGT) ?
**Result** 0

**Query** What do we get for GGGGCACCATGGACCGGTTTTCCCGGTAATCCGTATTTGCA (site GTGGCACCTTG) ?
**Result** 0.0102

**Query** What do we get for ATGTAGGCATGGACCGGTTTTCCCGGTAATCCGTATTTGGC (site GTGTAGGCTGC) ?
**Result** 0.716

**Query** What do we get for CAAAGTCCATGGACCGGTTTTCCCGGTAATCCGTATTTGTA (site GAAAGTCCTTA) ?
**Result** 0.405

**Query** What do we get for GCTTGCCCATGGACCGGTTTTCCCGGTAATCCGTATTTGGT (site GCTTGCCCTAG) ?
**Result** 0

**Query** What do we get for TAGCCAGCATGGACCGGTTTTCCCGGTAATCCGTATTTGAA (site TAGCTAGCTTT) ?
**Result** 0.00915

**Query** What do we get for TGGAATCCATGGACCGGTTTTCCCGGTAATCCGTATTTGTG (site CGGAATCCTAA) ?
**Result** 0.00353

**Query** What do we get for GAGGATTCATGGACCGGTTTTCCCGGTAATCCGTATTTGTT (site GATGATTCTAA) ?
**Result** 0.0156

**Query** What do we get for ATGAATACATGGACCGGTTTTCCCGGTAATCCGTATTTGCA (site ATGAATACTTG) ?
**Result** 2.21

**Query** What do we get for TTAGCCGCATGGACCGGTTTTCCCGGTAATCCGTATTTGTG (site TTAGCGGCTCA) ?
**Result** 0.0427

**Query** What do we get for ACTAGAGCATGGACCGGTTTTCCCGGTAATCCGTATTTGCA (site ACTAGAGCTTG) ?
**Result** 2.15

**Query** What do we get for CACCGCCCATGGACCGGTTTTCCCGGTAATCCGTATTTGTT (site CACCGCCCTAA) ?
**Result** 0.033

----------
- protocol-summary: recombinant barcode read abundance after kanamycin selection (control-corrected) (log10(CPM+1)); higher = more efficient recombination; sequences stand for … in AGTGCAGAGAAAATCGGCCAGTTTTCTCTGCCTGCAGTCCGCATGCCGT…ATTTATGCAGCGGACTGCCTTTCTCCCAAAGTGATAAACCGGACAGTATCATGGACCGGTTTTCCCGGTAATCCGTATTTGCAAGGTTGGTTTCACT; site = the 11-nt target
Use 0.1 as the dividing line for recombinant barcode read abundance (log10), with the line itself on the True side and lower values as False.

Some solved entries appear below for comparison.
macromolecule-sequence | class
AAACATGCTTGGGTTCTAACCTGTTGCCTCG [AAACATGCTAG_LTGcore_CT_RTGcore_CG] (site AAACATGCTAG) (LTG core: CT, RTG core: CG) | True
AAACAGTCTTGGGTTCTAACCTGTTGCCTTT [AAACAGTCTAG_LTGcore_CT_RTGcore_AA] (site AAACAGTCTAG) (LTG core: CT, RTG core: AA) | True
GGTGCCCATTGGGTTCTAACCTGTTGCCGAT [GGTGCCCCTCG_LTGcore_AT_RTGcore_AT] (site GGTGCCCCTCG) (LTG core: AT, RTG core: AT) | False
GGACACCTATGGGTTCTAACCTGTTGCCTAG [GGACACCCTAG_LTGcore_TA_RTGcore_CT] (site GGACACCCTAG) (LTG core: TA, RTG core: CT) | False
GGGAGCCCTTGGGTTCTAACCTGTTGCTGCG [GGGAGCCCTCA_LTGcore_CT_RTGcore_CG] (site GGGAGCCCTCA) (LTG core: CT, RTG core: CG) | True
AAACAGTCCTGGGTTCTAACCTGTTGCCTGG [AAACAGTCTAG_LTGcore_CC_RTGcore_CC] (site AAACAGTCTAG) (LTG core: CC, RTG core: CC) | False
ACGGGACTGTGGGTTCTAACCTGTTGCAGCA [ACGGGACCTCT_LTGcore_TG_RTGcore_TG] (site ACGGGACCTCT) (LTG core: TG, RTG core: TG) | True
GAGTCCTCCTGGGTTCTAACCTGTTGCCTGG [GAGTCCTCTAG_LTGcore_CC_RTGcore_CC] (site GAGTCCTCTAG) (LTG core: CC, RTG core: CC) | True
TAAGAATCTTGGGTTCTAACCTGTTGCCTAG [TAAGAATCTAG_LTGcore_CT_RTGcore_CT] (site TAAGAATCTAG) (LTG core: CT, RTG core: CT) | True

Shifting focus to the sequence that follows.
**Query** Has AAACAGTAATGGGTTCTAACCTGTTGCCTTT [AAACAGTCTAG_LTGcore_AA_RTGcore_AA] (site AAACAGTCTAG) (LTG core: AA, RTG core: AA) a recorded recombinant barcode read abundance (log10) greater than or equal to 0.1?
**Result** True

----------
- protocol-summary: recombinant UMI read abundance after kanamycin selection (control-corrected) (log10(CPM+1)); higher = more efficient recombination; extreme values may be limits of the assay; sequences stand for … in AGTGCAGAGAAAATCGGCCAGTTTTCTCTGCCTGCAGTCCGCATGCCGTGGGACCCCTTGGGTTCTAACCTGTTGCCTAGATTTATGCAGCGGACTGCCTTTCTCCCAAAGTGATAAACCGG…AGGTTGGTTTCACT; site = the 11-nt donor
Recorded recombinant UMI read abundance (log10) values for a group of sequences are listed next.
Could you keep your reply to the number by itself?

See these solved cases before continuing.
macromolecule-sequence | recombinant UMI read abundance (log10)
TTGCTACCATGGACCGGTTTTCCCGGTAATCCGTATTTGCT (site TTGCTACCTAG) | 0
ACCCACCCATGGACCGGTTTTCCCGGTAATCCGTATTTGAG (site ACCCACCCTCT) | 0.00795
TCAAGCACATGGACCGGTTTTCCCGGTAATCCGTATTTGAT (site TCAAGCACTAT) | 1.94

**Query** Could you share which recombinant UMI read abundance (log10) value was measured for CAATACTCATGGACCGGTTTTCCCGGTAATCCGTATTTGAA (site CAATTCTCTTT) ?
**Result** 0

**Query** What do we get for AGACGAACATGGACCGGTTTTCCCGGTAATCCGTATTTGGA (site AGACGAACTTC) ?
**Result** 1.82

**Query** What do we get for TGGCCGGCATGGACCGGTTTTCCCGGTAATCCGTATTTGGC (site TTGCCGGCTGC) ?
**Result** 0.00854

**Query** What do we get for GGTTCATCATGGACCGGTTTTCCCGGTAATCCGTATTTGCT (site GGTTCATCTAG) ?
**Result** 1.84

**Query** What do we get for GGCGATTCATGGACCGGTTTTCCCGGTAATCCGTATTTGGC (site GGCGATTCTGC) ?
**Result** 1.57

**Query** What do we get for AATTTGGCATGGACCGGTTTTCCCGGTAATCCGTATTTGTG (site GATTTGGCTCA) ?
**Result** 0.011
